Would you kindly list CC50 at 96 h for each of these molecules?
# Test description: Cytotoxicity against human RD cells incubated for 4 days by CellTiter-Glo luminescence assay
# Type: cell-based

Worked set:
Molecule smiles	CC50 at 96 h
Nc1cccc(Nc2ccc3ncc4ccc(=O)n(-c5cccc(C(F)(F)F)c5)c4c3c2)c1	7580 nM
CN(C)c1ccc(-c2ccc3ncc4ccc(=O)n(-c5cccc(C(F)(F)F)c5)c4c3c2)cn1	170 nM
Nc1cccc(Nc2ccc3ncc4ccc(=O)n(-c5cccc(C(F)(F)F)c5)c4c3c2)n1	5190 nM
O=C(Cc1ccccc1)Nc1ccc(-c2ccc3ncc4ccc(=O)n(-c5cccc(C(F)(F)F)c5)c4c3c2)cn1	740 nM
CC(=O)/C=C/c1cnc2ccc(-c3ccc(F)nc3)cc2c1Nc1cccc(C(F)(F)F)c1	2230 nM

Parameter requested: CC50 at 96 h. Apply to each item below.
1. O=c1ccc2cnc3ccc(-c4ccc(N5CCOCC5)nc4)cc3c2n1-c1cccc(C(F)(F)F)c1
2. COc1ncccc1-c1ccc2ncc3ccc(=O)n(-c4cccc(C(F)(F)F)c4)c3c2c1
3. Cc1ccc(-c2ccc3ncc4oc(=O)n(-c5cccc(C(F)(F)F)c5)c4c3c2)cn1
4. O=c1ccc2cnc3ccc(-c4cccnc4F)cc3c2n1-c1cccc(C(F)(F)F)c1
5. O=C(Nc1ccc(-c2ccc3ncc4ccc(=O)n(-c5cccc(C(F)(F)F)c5)c4c3c2)cn1)OCc1ccccc1
6. COC(=O)/C=C/c1ccc2ncc3oc(=O)n(-c4cccc(C(F)(F)F)c4)c3c2c1
7. CCC(=O)Nc1ccc(-c2ccc3ncc4ccc(=O)n(-c5cccc(C(F)(F)F)c5)c4c3c2)cn1
8. NC(=O)NC/C=C/c1ccc2ncc3oc(=O)n(-c4cccc(C(F)(F)F)c4)c3c2c1

Response:
1: 2910 nM; 2: > 200000 nM; 3: 16900 nM; 4: 1230 nM; 5: 1000 nM; 6: 72000 nM; 7: 40 nM; 8: 66600 nM

Parameter requested: CC50 at 96 h. Apply to each item below.
1. CC(C)(C)OC(=O)Nc1ccc(-c2ccc3ncc4ccc(=O)n(-c5cccc(C(F)(F)F)c5)c4c3c2)cn1
2. COc1cncc(-c2ccc3ncc(/C=C/C(C)=O)c(Nc4cccc(C(F)(F)F)c4)c3c2)c1
3. O=C(Nc1ccc(-c2ccc3ncc4ccc(=O)n(-c5cccc(C(F)(F)F)c5)c4c3c2)cn1)Oc1ccccc1
4. CC(C)C(=O)Nc1ccc(-c2ccc3ncc4ccc(=O)n(-c5cccc(C(F)(F)F)c5)c4c3c2)cn1
5. O=c1ccc2cnc3ccc(-c4ccc(F)nc4)cc3c2n1-c1cccc(C(F)(F)F)c1

Response:
1: 690 nM; 2: > 200000 nM; 3: 200 nM; 4: 460 nM; 5: 230 nM
